Reference for the values: the supplement of paper PMC9170038

System: MS2 coat protein
Experiment: apparent KD of MS2 coat protein; higher = weaker reporter binding
Details: Eterna round: R107; input ligand: theophylline 2 mM
measurement type: apparent KD of MS2 coat protein (µM)
Write the value in µM as a bare number.

# example entries with known answers
INSERT INTO results (monomer_sequence, obs_value) VALUES
  ('AUGGAGACCUCGGCCGCCACUCUCCAUGAGGAUCUCCCAUGUAACAUGAGGAUCACCCAUGUGCUGAGGACCGGGAGGUCCUGAA [Same State Tryptophan B GF 18]', 0.0125),
  ('AGAAUAUAGUCGGCCGCCACUCUUCAUACAUGAGGAUCACCCAUGUUUAAUUCUUGGAUAUUCUUGAGGACCGGGACAUAGGCAU [JR_SSTryptoB_Sub019]', 0.0216),
  ('GACAUGAGGAUCGAUACCAGCGACAUGAGGAUCACAUGAGGAUCACCCAUGUGUAGUAUACGCCCUUGGCAGCGAACAUGAGGAU [Same State Theophylline B 3]', 0.0392);

// apparent KD of MS2 coat protein lookup, key: GUACACAUGAGGAUCACCCAUGUACUGGUACGAGGACCGGUACGGCCGCCACUCGCCGAGAUUCAUAACACAUCAGAAAGCUCAC [theeternabot_sameState_MS2_Trp_A_45]
0.0188

Name the reported apparent KD of MS2 coat protein value associated with the sequence GCUAUGGCUGGAAGGAGCGUGAAUUUCAGCGAACAUGAGGAUCACCCAUGUAAGGAUAUGGCACAGGUAGGUCGCUAGCCAUAGC [#19 Same State - Arginine B]
0.0151

Requested field: apparent KD of MS2 coat protein. Item: AAAUGAAGGCGAAGGAGCGCGAACAUGAGGAUCACCCAUGUGUAUGUAUGUAGUCAUGUAUCGCAGGUAGGUCGCGCUGUUACAU [Exclusion Arginine B]
0.352
